assay text: Cytotoxicity evaluation, Uptiblue viable cell-counting assay
condition info: African green monkey, Vero cells (ATCC CCL-81)
Field: CC50 at 72 h. Provide a value for each of the compounds that follow.

Completed entries (count: 3):
compound	experimental result
CCc1nc(N)nc(N)c1-c1ccc(Cl)cc1 [Pyrimethamine (10), pyrimethamine, reference compound]	27.7 µM
C=C(C)[C@@H]1CC[C@]2(C=O)CC[C@]3(C)[C@H](CC[C@@H]4[C@@]5(C)CC[C@H](O)C(C)(C)[C@@H]5CC[C@]43C)[C@@H]12 [Betulinaldehyde (2), betulinaldehyde]	> 80 µM
C=C(C)C1CCC2(C(=O)O)CCC3(C)C(CCC4C5(C)CCC(=O)C(C)(C)C5CCC43C)C12 (stereo not shown) [Betulonic acid (7), Betulonic acid]	> 80 µM

Could you now consider this next compound?
Query: Look up CC50 at 72 h: C=C(C)[C@@H]1CC[C@]2(C)CC[C@]3(C)[C@H](CC[C@@H]4[C@@]5(C)CC[C@H](O)C(C)(C)[C@@H]5CC[C@]43C)[C@@H]12 [Lupeol (5), lupeol]
Reply: > 80 µM
